Quick reference for IC50 among some compounds
target: BRD4(BD1) (Homo sapiens); construct: His; made in house; assay: BRD4 AlphaLisa binding assay (Alphascreen); conditions: Table 6; BRD4(BD1) 30 nM, H4-tetraacetyl peptide 200 nM; read-out: BRD4 Alphascreen IC50

Previously resolved entries follow.
{"columns": ["Compound", "IC50"],
 "data": [
  ["Cc1noc2c1-c1sc(C)c(C)c1C(Cc1ccccc1)=N[C@H]2CC(N)=O [Compound 127]", "> 1000 nM"],
  ["Cc1noc2c1-c1cccc(Cl)c1C(c1ccc(Cl)cc1)=N[C@H]2CC(N)=O [Compound 139]", "< 500 nM"],
  ["Cc1noc2c1-c1cccc(Cl)c1C(c1ccc(C#N)cc1)=N[C@H]2CC(N)=O [Compound 140]", "< 500 nM"],
  ["CCOC(=O)NC1N=C(c2ccc(Cl)cc2)c2ccccc2-c2c1noc2C (centres unmarked) [Compound 155]", "< 500 nM"]
]}

# input Tell me its IC50 on BRD4(BD1) (Homo sapiens): Cc1noc2c1-c1ccccc1C(N1CCOCC1)=N[C@H]2CC(N)=O [Compound 152]
# output > 1000 nM

# input Tell me its IC50 on BRD4(BD1) (Homo sapiens): Cc1noc2c1-c1ccnc(N)c1C(c1ccc(Cl)cc1)=NC2 [Compound 172]
# output < 500 nM

# input Tell me its IC50 on BRD4(BD1) (Homo sapiens): COc1cccc(C2=N[C@@H](CC(N)=O)c3onc(C)c3-c3ccccc32)c1 [Compound 147]
# output < 500 nM

# input Tell me its IC50 on BRD4(BD1) (Homo sapiens): Cc1noc2c1-c1ccn(-c3ccc(C#N)cc3)c(=O)c1C(c1ccc(Cl)cc1)=NC2 [Compound 178]
# output > 1000 nM

----------
System: IL-6 secretion
Test: Cell-based IL-6 quantification assay (ELISA, Mesoscale) in LPS-stimulated THP-1 cells
Details: Table 7; THP-1 cells, LPS 4 μg/mL, 16 h, normalised to CellTiter-Glo; read-out: IL6
Procedure: 100,000 THP-1 cells were seeded in RPMI1640-10% FBS in 96-well plates. LPS (E. Coli Invitrogen) in RPMI-10% FBS at a final concentration of 4 μg/mL was added to the wells and the cells are then incubated in the presence of various concentrations of compounds for 16 h. […] The amount of cells in each well is assessed using CellTiter-Glo® (Promega). […]
Quick reference for IC50 among some compounds

Previously resolved entries follow.
{"columns": ["Compound", "Observed Result"],
 "data": [
  ["COCCNC(=O)C[C@@H]1N=C(c2ccc(C#N)cc2)c2ccccc2-c2c(C)noc21 [Compound 150]", "< 500 nM"],
  ["Cc1cccc2c1C(c1ccc(Cl)cn1)=N[C@@H](CC(N)=O)c1onc(C)c1-2 [Compound 133]", "< 500 nM"]
]}

Consider the additional compound presented here.
# input Name the recorded IC50 of the compound listed here: Cc1noc2c1-c1cccc(Cl)c1C(c1ccc(F)cc1)=N[C@H]2CC(N)=O [Compound 138]
# output < 500 nM

----------
Quick reference for pIC50 among some compounds
target: BRD4(BD1) (Homo sapiens, UniProt O60885); construct: His; made in house; assay: BRD4 AlphaLisa binding assay (Alphascreen); settings: Table 6; BRD4(BD1) 30 nM, H4-tetraacetyl peptide 200 nM; read-out: BRD4 Alphascreen IC50
pIC50: −log10 of the molar value.

Previously resolved entries follow.
{"columns": ["Compound", "Assayed System", "Observed Result"],
 "data": [
  ["CCCC1=NC(CC(N)=O)c2onc(C)c2-c2sc(C)c(C)c21 (stereo not drawn)", "BRD4(BD1) (Homo sapiens, UniProt O60885)", "> 6.30"],
  ["Cc1onc2c1-c1ccccc1C(c1ccc(Cl)cc1)=NC2", "BRD4(BD1) (Homo sapiens, UniProt O60885)", "< 6.00"],
  ["CCNc1nccc2c1C(c1ccc(Cl)cc1)=NCc1onc(C)c1-2", "BRD4(BD1) (Homo sapiens, UniProt O60885)", "> 6.30"]
]}

# input Name the recorded pIC50 of the compound listed here: Cc1onc2c1-c1ccccc1C(c1ccc(Cl)cc1)=NC2N (stereo not drawn)
# output < 6.00

# input Name the recorded pIC50 of the compound listed here: Cc1onc2c1-c1ccccc1C(c1ccc(Cl)cc1)=NC2C (stereo not drawn)
# output > 6.30

# input Name the recorded pIC50 of the compound listed here: Cc1noc2c1-c1cc[nH]c(=O)c1C(c1ccc(Cl)cc1)=NC2
# output < 6.00

----------
Quick reference for IC50 among some compounds
tested on: MYC mRNA; assay: cMyc RNA quantification assay (QuantiGene) in MV4:11 cells; assay type: cell-based; details: Homo sapiens, MV4-11, 4 h, Table 7, MV4:11 (AML) cells, read-out: MYC-MV411

Previously resolved entries follow.
{"columns": ["Compound", "Metric", "Observed Result"],
 "data": [
  ["CNc1nccc2c1C(c1ccc(Cl)cc1)=N[C@@H](CC(N)=O)c1onc(C)c1-2", "IC50", "< 500 nM"],
  ["Cc1noc2c1-c1sc(C)c(C)c1C(c1ccc(Cl)cc1)=N[C@H]2CC(N)=O", "IC50", "< 500 nM"],
  ["Cc1cccc2c1C(c1ccc(C(F)(F)F)cc1)=NC(CC(N)=O)c1onc(C)c1-2 (stereo not shown)", "IC50", "< 500 nM"]
]}

Consider the additional compound presented here.
# input Name the recorded IC50 of the compound listed here: Cc1noc2c1-c1ccnc(F)c1C(c1ccc(Cl)cc1)=N[C@H]2CC(N)=O
# output 500 to 1000 nM

----------
target: BRD4(BD1) (Homo sapiens, UniProt O60885); construct: His; made in house; test: BRD4 AlphaLisa binding assay (Alphascreen); conditions: Table 6; BRD4(BD1) 30 nM, H4-tetraacetyl peptide 200 nM; read-out: BRD4 Alphascreen IC50
pIC50: −log10 of the molar value.
Quick reference for pIC50 among some compounds

{"columns": ["Compound", "Observed Result"],
 "data": [
  ["Cc1noc2c1-c1cccc(Cl)c1C(c1ccncc1)=N[C@H]2CC(N)=O", "> 6.30"],
  ["Cc1noc2c1-c1sc(C)c(C)c1C(c1ccc(C(N)=O)cc1)=NC2CC(N)=O (stereo not drawn)", "> 6.30"],
  ["Cc1cccc2c1C(c1ccc(OC(F)(F)F)cc1)=N[C@@H](CC(N)=O)c1onc(C)c1-2", "> 6.30"]
]}

# input Name the recorded pIC50 of the compound listed here: Cc1noc2c1-c1sc(C)c(C)c1C(N1CCCN(C)CC1)=NC2CC(N)=O (stereo not drawn)
# output < 6.00

# input Name the recorded pIC50 of the compound listed here: Cc1noc2c1-c1ccnc(OC(C)C)c1C(c1ccc(Cl)cc1)=NC2
# output < 6.00

----------
target: BRD4(BD1) (Homo sapiens, UniProt O60885); construct: His; made in house; experiment: BRD4 AlphaLisa binding assay (Alphascreen); details: Table 6; BRD4(BD1) 30 nM, H4-tetraacetyl peptide 200 nM; read-out: BRD4 Alphascreen IC50
pIC50: −log10 of the molar value.
Quick reference for pIC50 among some molecules

{"columns": ["Molecule", "pIC50"],
 "data": [
  ["CNc1nccc2c1C(c1ccc(Cl)cc1)=N[C@@H](CC(N)=O)c1onc(C)c1-2", "> 6.30"],
  ["Cc1cccc2c1C(c1ccc(Cl)cc1)=NC(CC(N)=O)c1onc(C)c1-2 (stereo not drawn)", "> 6.30"],
  ["CCNC(=O)C[C@@H]1N=C(c2ccc(Cl)cc2)c2ccccc2-c2c1noc2C", "> 6.30"],
  ["COc1nccc2c1C(c1ccc(Cl)cc1)=NCc1onc(C)c1-2", "> 6.30"],
  ["Cc1cc(Cl)ccc1C1=NC(CC(N)=O)c2onc(C)c2-c2ccccc21 (stereo not drawn)", "> 6.30"]
]}

Consider the additional molecule presented here.
# input Name the recorded pIC50 of the molecule listed here: Cc1onc2c1-c1ccccc1C(c1ccc(Cl)cc1)=NC2O (stereo not drawn)
# output < 6.00

----------
Quick reference for pIC50 among some molecules
molecular target: BRD4(BD1) (Homo sapiens, UniProt O60885); construct: His; made in house; test: BRD4 AlphaLisa binding assay (Alphascreen); conditions: Table 6; BRD4(BD1) 30 nM, H4-tetraacetyl peptide 200 nM; read-out: BRD4 Alphascreen IC50
pIC50: −log10 of the molar value.

Previously resolved entries follow.
{"columns": ["Molecule", "pIC50"],
 "data": [
  ["CCNC(=O)C[C@@H]1N=C(c2ccc(Cl)cc2)c2ccccc2-c2c(C)noc21", "> 6.30"],
  ["Cc1noc2c1-c1ccnc(N(C)C)c1C(c1ccc(Cl)cc1)=NC2", "> 6.30"],
  ["Cc1cc(Cl)ccc1C1=NC(CC(N)=O)c2onc(C)c2-c2sc(C)c(C)c21 (stereo not drawn)", "> 6.30"],
  ["Cc1noc2c1-c1sc(C)c(C)c1C(c1ccc(C#N)cc1)=NC2CC(=O)NCCF (stereo not drawn)", "> 6.30"],
  ["Cc1noc2c1-c1ccc(Cl)cc1C(c1ccc(Cl)cc1)=N[C@H]2CC(N)=O", "> 6.30"]
]}

# input Name the recorded pIC50 of the molecule listed here: Cc1noc2c1-c1sc(C)c(C)c1C(Oc1ccccc1)=N[C@H]2CC(N)=O
# output 6.00 to 6.30

# input Name the recorded pIC50 of the molecule listed here: Cc1noc2c1-c1cccc(Cl)c1C(c1ccc(F)cc1)=N[C@H]2CC(N)=O
# output > 6.30

# input Name the recorded pIC50 of the molecule listed here: CC(=O)NC[C@@H]1N=C(c2ccc(Cl)cc2)c2c(sc(C)c2C)-c2c(C)noc21
# output > 6.30

# input Name the recorded pIC50 of the molecule listed here: COCCNC(=O)C[C@@H]1N=C(c2ccc(C#N)cc2)c2ccccc2-c2c(C)noc21
# output > 6.30
